Provide the recorded selectivity ratio for the entries that follow.
test: Selectivity index, ratio of HC50 for sheep red blood cells to MIC for Staphylococcus aureus; assay type: toxicity, cell-based, RBC; details: read-out: Selectivity Index

For the compound C[N+](C)(CCCCCOc1ccccc1)CCCCOc1cc(OCCCC[N+](C)(C)CCCCCOc2ccccc2)cc(OCCCC[N+](C)(C)CCCCCOc2ccccc2)c1.[Br-].[Br-].[Br-] , what selectivity ratio is on record?
> 1280

For the compound C[N+](C)(CCCCc1ccccc1)CCCOc1cc(OCCC[N+](C)(C)CCCCc2ccccc2)cc(OCCC[N+](C)(C)CCCCc2ccccc2)c1.[Br-].[Br-].[Br-] , what selectivity ratio is on record?
> 160

For the compound C[N+](C)(CCCCOc1ccccc1)CCCCOc1cc(OCCCC[N+](C)(C)CCCCOc2ccccc2)cc(OCCCC[N+](C)(C)CCCCOc2ccccc2)c1.[Br-].[Br-].[Br-] , what selectivity ratio is on record?
> 640

For the compound C[N+](C)(CCCCCOc1cc(OCCCCC[N+](C)(C)CCCOc2ccccc2)cc(OCCCCC[N+](C)(C)CCCOc2ccccc2)c1)CCCOc1ccccc1.[Br-].[Br-].[Br-] , what selectivity ratio is on record?
> 1280

For the compound C[N+](C)(CCCCOc1cc(OCCCC[N+](C)(C)CCCOc2ccccc2)cc(OCCCC[N+](C)(C)CCCOc2ccccc2)c1)CCCOc1ccccc1.[Br-].[Br-].[Br-] , what selectivity ratio is on record?
> 320

For the compound CCCCCCCC[N+](C)(C)CCCCOc1ccc(OCCCC[N+](C)(C)CCCCCCCC)c(OCCCC[N+](C)(C)CCCCCCCC)c1.[Br-].[Br-].[Br-] , what selectivity ratio is on record?
> 2560

For the compound C[N+](C)(CCCCCOc1cc(OCCCCC[N+](C)(C)CCCCc2ccccc2)cc(OCCCCC[N+](C)(C)CCCCc2ccccc2)c1)CCCCc1ccccc1.[Br-].[Br-].[Br-] , what selectivity ratio is on record?
> 1280

----------
Provide the recorded MIC for the entries that follow.
tested on: Staphylococcus aureus; assay: Antimicrobial activity against Staphylococcus aureus assessed as inhibition of growth incubated for 18 hrs by CLSI guidelines based assay; assay type: functional
Entry rule: numbers only, all in µg/mL.

For the compound CCCCCCCC[N+](C)(C)CCCCOc1cc(OCCCC[N+](C)(C)CCCCCCCC)cc(OCCCC[N+](C)(C)CCCCCCCC)c1.[Br-].[Br-].[Br-] , what MIC is on record?
0.5

For the compound C[N+](C)(CCCCc1ccccc1)CCCOc1cc(OCCC[N+](C)(C)CCCCc2ccccc2)cc(OCCC[N+](C)(C)CCCCc2ccccc2)c1.[Br-].[Br-].[Br-] , what MIC is on record?
8

For the compound CCCCCCCC[N+](C)(C)CCCCCOc1cc(OCCCCC[N+](C)(C)CCCCCCCC)cc(OCCCCC[N+](C)(C)CCCCCCCC)c1.[Br-].[Br-].[Br-] , what MIC is on record?
0.5

For the compound C[N+](C)(CCCCCOc1ccccc1)CCCCCOc1cc(OCCCCC[N+](C)(C)CCCCCOc2ccccc2)cc(OCCCCC[N+](C)(C)CCCCCOc2ccccc2)c1.[Br-].[Br-].[Br-] , what MIC is on record?
1

For the compound C[N+](C)(CCCCOc1ccccc1)CCCOc1cc(OCCC[N+](C)(C)CCCCOc2ccccc2)cc(OCCC[N+](C)(C)CCCCOc2ccccc2)c1.[Br-].[Br-].[Br-] , what MIC is on record?
32

For the compound C[N+](C)(CCCCOc1ccccc1)CCCCOc1cc(OCCCC[N+](C)(C)CCCCOc2ccccc2)cc(OCCCC[N+](C)(C)CCCCOc2ccccc2)c1.[Br-].[Br-].[Br-] , what MIC is on record?
2

For the compound C[N+](C)(CCCCCOc1cc(OCCCCC[N+](C)(C)CCCCc2ccccc2)cc(OCCCCC[N+](C)(C)CCCCc2ccccc2)c1)CCCCc1ccccc1.[Br-].[Br-].[Br-] , what MIC is on record?
1

For the compound CCCCCCCC[N+](C)(C)CCCCOc1ccc(OCCCC[N+](C)(C)CCCCCCCC)c(OCCCC[N+](C)(C)CCCCCCCC)c1.[Br-].[Br-].[Br-] , what MIC is on record?
0.5

For the compound C[N+](C)(CCCCCOc1cc(OCCCCC[N+](C)(C)CCCOc2ccccc2)cc(OCCCCC[N+](C)(C)CCCOc2ccccc2)c1)CCCOc1ccccc1.[Br-].[Br-].[Br-] , what MIC is on record?
1

----------
test: Hemolytic activity in sheep red blood cells measured after 1 hr incubation; type: toxicity, cell-based, Ovis aries, Erythrocyte
Provide the recorded HC50 at 1 h for the entries that follow.

For the molecule CCCCCCCCCC[N+](C)(C)CCCCCOc1cc(OCCCCC[N+](C)(C)CCCCCCCCCC)cc(OCCCCC[N+](C)(C)CCCCCCCCCC)c1.[Br-].[Br-].[Br-] , what HC50 at 1 h is on record?
16 µg/mL

For the molecule CCCCCC[N+](C)(C)CCCCOc1cc(OCCCC[N+](C)(C)CCCCCC)cc(OCCCC[N+](C)(C)CCCCCC)c1.[Br-].[Br-].[Br-] , what HC50 at 1 h is on record?
> 1280 µg/mL

For the molecule CCCCCCCC[N+](C)(C)CCCCOc1cc(OCCCC[N+](C)(C)CCCCCCCC)cc(OCCCC[N+](C)(C)CCCCCCCC)c1.[Br-].[Br-].[Br-] , what HC50 at 1 h is on record?
> 1280 µg/mL

For the molecule CCCC[N+](C)(C)CCCCOc1cc(OCCCC[N+](C)(C)CCCC)cc(OCCCC[N+](C)(C)CCCC)c1.[Br-].[Br-].[Br-] , what HC50 at 1 h is on record?
> 1280 µg/mL

For the molecule C[N+](C)(CCCCOc1ccccc1)CCCOc1cc(OCCC[N+](C)(C)CCCCOc2ccccc2)cc(OCCC[N+](C)(C)CCCCOc2ccccc2)c1.[Br-].[Br-].[Br-] , what HC50 at 1 h is on record?
> 1280 µg/mL

For the molecule C[C@@H](O)[C@H]1C(=O)N2C(C(=O)O)=C(S[C@@H]3CN[C@H](C(=O)N(C)C)C3)[C@H](C)[C@H]12 , what HC50 at 1 h is on record?
1220 µg/mL

These data points were gathered from ChEMBL document CHEMBL6071176.
